target: Cytochrome P450 2D6 (Homo sapiens) (UniProt P10635); assay: Cytochrome P450 family 2 subfamily D member 6 (CYP2D6) small molecule antagonists: luciferase biochemical (cell-free) qHTS assay (AID 1645840); settings: P450-Glo CYP2D6 enzyme, luciferin luminescence, 1 h; series mostly up to 57.4 µM; note: nearly all actives have a fitted effect of over 55% in size
Sequence (P10635 whole entry, looked up): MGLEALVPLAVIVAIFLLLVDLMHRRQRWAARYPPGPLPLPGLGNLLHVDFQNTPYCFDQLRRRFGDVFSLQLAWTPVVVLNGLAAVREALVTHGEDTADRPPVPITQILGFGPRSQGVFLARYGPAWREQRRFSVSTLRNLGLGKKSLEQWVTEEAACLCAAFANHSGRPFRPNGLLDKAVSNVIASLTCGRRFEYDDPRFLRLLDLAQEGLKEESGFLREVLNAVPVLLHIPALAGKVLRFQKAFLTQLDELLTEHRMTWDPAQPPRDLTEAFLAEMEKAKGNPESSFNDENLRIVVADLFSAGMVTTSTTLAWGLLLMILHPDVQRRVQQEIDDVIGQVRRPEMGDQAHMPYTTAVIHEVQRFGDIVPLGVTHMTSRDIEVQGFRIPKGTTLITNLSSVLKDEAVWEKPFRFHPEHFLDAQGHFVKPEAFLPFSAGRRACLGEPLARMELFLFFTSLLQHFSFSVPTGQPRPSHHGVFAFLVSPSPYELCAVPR
Records with an inconclusive call do not appear. The source made the active and inactive calls. Calls come from the whole dose curve; as a rule, active = well fitted inhibition curve with a large enough effect in the repeat runs; inconclusive = weak or mixed curves; inactive = flat fitted curve, though single readings scatter.
Write down the outcome that applies. Available outcomes: active, inactive

CC(=O)c1ccc(N2CCN(c3ncnc4c3cnn4C)CC2)cc1    inactive

Okay, now this compound:
Please let me know the test result on file for COc1ccc(CC(=O)NCC(c2cccs2)S(=O)(=O)c2ccc(Cl)cc2)cc1 (centres undefined) . active

The measured values listed here are drawn from PubChem BioAssay (NCATS).
